Molecular target: recombinant DYRK1A kinase (Homo sapiens (Human), UniProt Q13627)
Test: DYRK1A kinase assay (Ser/Thr 18 peptide Z-lyte FRET);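 note: Read-out is the coumarin to fluorescein emission ratio, referenced to unphosphorylated (0%) and phosphorylated (100%) Ser/Thr 18 peptide controls, values from dose-response curves by non-linear regression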
Details: 30 μM ATP, 1 h room temperature
property: log10 of EC50 (log10 of the value in nM)
Reminder: these figures are log10 of reported EC50, in nM before transformation.

given-smiles | log10 of EC50
[2H]C([2H])([2H])n1cc(-c2cc3cc(NC(=O)CN4CCCCC4)ncc3cc2F)cn1 | 0.76
Cn1cc(-c2ccc3cnc(NC(=O)C4(F)CCNCC4)cc3c2)cn1 | 1.02
CCN(CC)c1ncc(-c2ccc3cnc(NC(=O)CN4CCC(F)CC4)cc3c2)s1 | 2.67

List log10 of EC50 for every entry below, keeping the order given.
1. CO[C@H]1CC[C@H](C(=O)Nc2cc3cc(-c4nnc(C)s4)ccc3cn2)CC1
2. Cn1cncc1-c1ccc2cnc(NC(=O)C3CCN(CCC(F)(F)F)CC3)cc2c1
3. Cn1cc(-c2ccc3cnc(NC(=O)[C@@H]4CCCCN4)cc3c2)cn1

Reply:
1. 1.54
2. 0.18
3. 0.28

List log10 of EC50 for every entry below, keeping the order given.
1. C[C@@H](F)CN1CCC(C(=O)Nc2cc3cc(-c4cnn(C)c4)ccc3cn2)CC1
2. Cc1nnc(-c2ccc3cnc(NC(=O)CN4CCOCC4)cc3c2)s1
3. Cn1ncc(-c2ccc3cnc(NC(=O)C4CCN(C5COC5)CC4)cc3c2)c1CN1CCCCC1
4. CO[C@H]1CC[C@H](C(=O)Nc2cc3cc(-c4cnn(C)c4CN4CCCCC4)ccc3cn2)CC1
5. O=C(Nc1cc2cc(-c3cnco3)ccc2cn1)C1CCOCC1
6. Cn1cc(-c2ccc3cnc(NC(=O)C4CCN(CCO)CC4)cc3c2)cn1
7. CC(=O)N1CCC(C(=O)Nc2cc3cc(-c4cnn(C)c4)ccc3cn2)CC1

Reply:
1. 0.40
2. 0.86
3. 0.59
4. 0.38
5. 0.79
6. -0.22
7. 0.43

List log10 of EC50 for every entry below, keeping the order given.
1. C[C@H]1CN(CC(=O)Nc2cc3cc(-c4cnn(C)c4)ccc3cn2)CCO1
2. Cn1cc(-c2ccc3cnc(NC(=O)CN4C5CCC4COC5)cc3c2)cn1

Reply:
1. 1.00
2. 1.02

List log10 of EC50 for every entry below, keeping the order given.
1. Cn1cncc1-c1ccc2cnc(NC(=O)C3CCN(S(C)(=O)=O)CC3)cc2c1
2. Cn1cc(-c2ccc3cnc(NC(=O)C4CCNCC4)cc3c2)cn1

Reply:
[0.18, 0.40]

Source of measurements: patent US10287267B2
